Data origin, for the record: PubChem BioAssay (NCI)

# Tested on: DMS 273 small cell lung
# ASSAY DETAILS: NCI tumour cell line growth inhibition, 48 h
READOUT NAME: TGI

Reference set, count: 6
{"columns": ["COMPOUND", "TARGET DESC", "TGI"],
 "data": [
  ["COc1ccc2cc1Oc1ccc(cc1)C[C@H]1c3cc(c(OC)cc3CCN1C)Oc1c(OC)c(OC)cc3c1[C@H](C2)N(C)CC3", "DMS 273 small cell lung", "13.2 µM"],
  ["COc1ccc(C2C(Cl)C(=O)N2NC(=O)c2ccc(NC(C)=O)cc2)cc1 (stereo not drawn)", "DMS 273 small cell lung", "> 100 µM"],
  ["CCOC(=O)C(OCC1CC=CCC1)Sc1ccccc1 (stereo not drawn)", "DMS 273 small cell lung", "> 100 µM"],
  ["Nc1n[nH]c(=O)[nH]1", "DMS 273 small cell lung", "> 100 µM"],
  ["CCOC(=O)C1=C(C)N(c2ccccc2)C2=C(C(=O)N(c3ccccc3)C2c2ccccc2)C1c1ccccc1 (stereo not drawn)", "DMS 273 small cell lung", "> 100 µM"],
  ["Cc1c(Cl)cccc1NC(=O)C(=O)C1C(=O)CC(C)(C)CC1=O", "DMS 273 small cell lung", "> 100 µM"]
]}

Asked: May I ask what TGI has been recorded for CC(=O)OC1=C2CC3(C)OC(=O)CC(C)(C)C3=CC=C2C=C(C(C)C)C1=O (stereo not drawn) ?
Given back: 2.65 µM

Asked: May I ask what TGI has been recorded for Cn1cc(NC(=O)c2cc(NC(=O)CCCCCCCCCCC(=O)Nc3cc(C(=O)Nc4cc(C(=O)NCCC(=N)N)n(C)c4)n(C)c3)cn2C)cc1C(=O)NCCC(=N)N ?
Given back: > 100 µM

###

# Test system: T-47D breast
# ASSAY DETAILS: NCI tumour cell line growth inhibition, 48 h
READOUT NAME: TGI

Reference set, count: 3
{"columns": ["MOLECULE", "TARGET DESC", "TGI"],
 "data": [
  ["O=c1cc(-c2cccc(F)c2)[nH]c2cc3c(cc12)OCO3", "T-47D breast", "> 100 µM"],
  ["COc1c(C2CC(=O)Nc3c2cnn3Cc2ccco2)cc2c(c1OC)OCO2 (configuration not stated)", "T-47D breast", "> 100 µM"],
  ["COc1ccc(-c2cc(-c3cc(Cl)ccc3Cl)nc3[nH]c(-c4cc(F)c(Cl)cc4Cl)cc(=O)c23)cc1", "T-47D breast", "> 100 µM"]
]}

Asked: Give the reported TGI for O=C(Cc1nc2ccc(C(=O)c3ccccc3)cc2[nH]c1=O)C(=O)Nc1ccc(Br)cc1 (system: T-47D breast).
Given back: > 100 µM

Asked: Give the reported TGI for c1sc(NC2=NCCO2)c2c1CCCC2 (system: T-47D breast).
Given back: > 100 µM

Asked: Give the reported TGI for Oc1ccccc1C(c1cc2c(cc1O)OCO2)N1CCOCC1 (configuration not stated) (system: T-47D breast).
Given back: 33.8 µM

Asked: Give the reported TGI for O=C(Nc1nc2ccccc2s1)OCC(F)(F)F (system: T-47D breast).
Given back: > 100 µM

Asked: Give the reported TGI for CCn1c(-c2nonc2N)nc2c(C#CCN)ncc(OCCCN)c21 (system: T-47D breast).
Given back: > 25 µM

###

# Tested on: HCT-15 colon
# ASSAY DETAILS: NCI tumour cell line growth inhibition, 48 h
# key: entry, value: TGI

Reference set, count: 3
{"columns": ["MOLECULE", "TGI"],
 "data": [
  ["CC(C)CC(N)C(=O)OCN1C(=O)C2C3C=CC(C2C1=O)C1C2C(=O)N(COC(=O)C(N)CC(C)C)C(=O)C2C31 (stereo not given)", "> 64.5 µM"],
  ["COc1ccc(-c2c(C#N)c(S)n(C3OC(COC(C)=O)C(OC(C)=O)C(OC(C)=O)C3OC(C)=O)c(=O)c2C#N)cc1 (stereo not given)", "> 100 µM"],
  ["OCC1CCCC(n2cnc3c(=S)nc[nH]c32)O1 (stereo not given)", "> 100 µM"]
]}

Asked: May I ask what TGI has been recorded for C=C1C(O)C2CCC(C)(C)C(=O)C2=C(CC(C)C)C12CC2 (stereo not given) ?
Given back: > 100 µM

Asked: May I ask what TGI has been recorded for CCOC(=O)c1cc(=C2\CCN(CC(C)CC)C2=S)/c(=C(/O)CC)[nH]1 (stereo not given) ?
Given back: 25.8 µM

###

# Test system: SK-MEL-5 melanoma
# ASSAY DETAILS: NCI tumour cell line growth inhibition, 48 h
Record met whenever TGI is at 30 µM or higher; record not met when lower.

Asked: Dear colleague, could you confirm whether O=C1/C(=C/c2ccc(F)cc2)CCOc2ccc([N+](=O)[O-])cc21 has TGI at or above 30 µM?
Given back: not met

Asked: Dear colleague, could you confirm whether CC(=O)[CH-]C(=O)c1ccccc1.CC(=O)[CH-]C(=O)c1ccccc1.CCCCCCCCCCCCCCCCCC(=O)[O-].CCCCCCCCCCCCCCCCCC(=O)[O-].[Ti+4] has TGI at or above 30 µM?
Given back: met

Asked: Dear colleague, could you confirm whether c1ccc(C[P+]2(c3ccccc3)c3ccccc3-c3ccccc32)cc1 has TGI at or above 30 µM?
Given back: met

Asked: Dear colleague, could you confirm whether COc1cc2c(c3c1C=CCO3)C(=O)c1ccccc1C2=O has TGI at or above 30 µM?
Given back: met

Asked: Dear colleague, could you confirm whether O=[N+]([O-])[C@@H]1C2C=CC(C2)[C@H]1Cl (some centres not stated) has TGI at or above 30 µM?
Given back: met

Asked: Dear colleague, could you confirm whether CCCN=C1CC(C)Nc2ccccc2N1 (configuration not stated) has TGI at or above 30 µM?
Given back: met

Asked: Dear colleague, could you confirm whether COc1ccc(-c2cc(-c3cc(Cl)ccc3Cl)nc3[nH]c(-c4cc(F)c(Cl)cc4Cl)cc(=O)c23)cc1 has TGI at or above 30 µM?
Given back: met

Asked: Dear colleague, could you confirm whether CC12CC(c3ccccc3O1)C(C(=O)Nc1ccc(F)cc1)C(=O)N2 (configuration not stated) has TGI at or above 30 µM?
Given back: met

Asked: Dear colleague, could you confirm whether Clc1nc(Cl)nc(NC23CC4CC(CC(C4)C2)C3)n1 has TGI at or above 30 µM?
Given back: not met

###

# Test system: UO-31 renal
# ASSAY DETAILS: NCI tumour cell line growth inhibition, 48 h
READOUT NAME: TGI

{"columns": ["COMPOUND", "TARGET DESC", "RESULT"],
 "data": [
  ["Nc1nc2ncc(SCc3ccc(C(=O)NC(CCC(=O)O)C(=O)O)cc3)cc2c(=O)[nH]1 (stereo not given)", "UO-31 renal", "> 100 µM"],
  ["CCOC(=O)C1(CC)CCCCC(=O)N1 (stereo not given)", "UO-31 renal", "> 100 µM"],
  ["CCOC(=O)C1=C(C)Nc2ccccc2S1", "UO-31 renal", "> 100 µM"],
  ["COc1ccc(-c2nn(-c3cccc(Cl)c3)cc2C2CC(c3ccccc3)=NN2C(C)=O)cc1 (stereo not given)", "UO-31 renal", "> 100 µM"],
  ["O=C1NC(c2ccc(O)cc2)C2CCC1C2 (stereo not given)", "UO-31 renal", "> 100 µM"],
  ["CCCN=C1CC(C)Nc2ccccc2N1 (stereo not given)", "UO-31 renal", "> 100 µM"],
  ["C=CCN(CC=C)Cn1c(=S)sc2ccccc21", "UO-31 renal", "> 100 µM"],
  ["CC(C)C(Sc1nc(-c2ccccc2)c(-c2ccccc2)[nH]1)C(=O)NNC(=S)Nc1ccccc1 (stereo not given)", "UO-31 renal", "35.8 µM"],
  ["COC(=O)C1OC(O[C@H]2CCC3(C)C(CCC4(C)C3CC=C3C5CC(C)(C)CCC5(C(=O)O)CC[C@]34C)C2(C)C)C(O)C(OC2OC(CO)C(O)C(O)C2O)C1O (stereo not given in full)", "UO-31 renal", "> 33.3 µM"]
]}

Asked: May I ask what TGI has been recorded for CCOc1ccc(S(=O)(=O)/N=C2\C=C(SCC(=O)O)C(=O)c3ccccc32)cc1 ?
Given back: 15.8 µM

###

# key: entry, value: TGI
# Test system: U251 CNS
# ASSAY DETAILS: NCI tumour cell line growth inhibition, 48 h

Reference set, count: 2
{"columns": ["COMPOUND", "TGI"],
 "data": [
  ["COc1ccc(NC(=O)Nc2n[nH]c3ccccc23)cc1", "> 100 µM"],
  ["COc1cc(/C=C\\[N+](=O)[O-])ccc1O", "10.6 µM"]
]}

API: the following record is the query input.
Asked: Give the reported TGI for COc1ccc(-c2c(C#N)c(S)n(C3OC(COC(C)=O)C(OC(C)=O)C(OC(C)=O)C3OC(C)=O)c(=O)c2C#N)cc1 (stereo not drawn) (system: U251 CNS).
Given back: > 100 µM
